test system: PC-3 prostate; assay: NCI tumour cell line growth inhibition, 48 h; in the data active = GI50 below about 0.43 µM; inactive = the rest
Output constraint: value belongs to true (1) for active, false (0) for inactive

These recorded examples may help you get a feel for the data.
| Line notation | Cat |
| --- | --- |
| O=c1oc2ccc(Cl)cc2c(=O)n1-c1ccc(Cl)cc1F | false (0) |
| O=S(=O)(NCCNc1cc(-c2cn(-c3ccccc3)nc2-c2cccc(O)c2)ccn1)c1ccc(C(F)(F)F)cc1 | false (0) |
| CS(=O)(=O)c1ccc(N/N=C/c2c(-c3ccc(S(C)(=O)=O)cc3)[nH]c3ccc(F)cc23)cc1 | false (0) |
| CCc1ccc(C2=C/C(=C/c3ccc(Cl)cc3)C(=O)N2CCc2ccc(S(N)(=O)=O)cc2)cc1 | false (0) |
| CCCCCCCCN(CCCCCCCC)C(=N)c1ccnc2ccccc12 | false (0) |
| O=C1C=C(Nc2ccccc2)c2ncccc2C1=O | false (0) |
| COc1cc(N2CCC(N3CCN(C)CC3)CC2)ccc1Nc1ncc(Cl)c(Nc2ccccc2P(C)(C)=O)n1 | false (0) |
| C#C[C@@]1(O)[C@@H](CO)O[C@@H](n2cc(Cl)c3c(N)ncnc32)[C@@H]1O | true (1) |

Record request — test call for COc1ccc(C(=S)c2cc(OC)c(OC)c(OC)c2)cc1OC(=O)CCl
true (1)
